# system: T1, human TSLP (human, UniProt Q969D9 29-159)
# T1 construct: also called hTSLP; rhTSLP
# assay info: SPR
readout label: koff (s⁻¹)
# number only, unit s⁻¹ dropped from output

What value of koff has been reported for the following binder? BDG38.140 (antibody, V domains shown, IgG1) VH: QMQLVESGGGVVQPGRSLTLSCAASGFEFRTYGMHWVRQAPGKGLEWVGVIWDDGSNTHYADSVKGRFTITRDNSKNTLNLQMNSLRVEDTAVYYCARAPQWYLTAEAFDLWGQGTMVTVSS VL: SYILTQPPSVSVAPGETATITCGGNLIGAKLVHWYQQKPGQAPVLVIYDDSDRPSRIPERFSGSNIGNTATLTIEDVEAGDEADYYCQVWDYSANHMVFGGGTKLTVL
2.79e-05

What value of koff has been reported for the following binder? BDG38.134 (antibody, V domains shown, IgG1) VH: QMQLVESGGGVVQPGQSLRLSCAASGFEFRTYGMHWVRQAPGKGLEWLAVIWYDGSNTHYADSVKGRFTITRDNSKNTLNLQMNSLRAEDTAVYYCVRAPQWYNSAEAFDLWGQGTMVTVSS VL: SYVLTQPPSVSVAPGQTARITCGGNLIGARLVHWYQQKPGQAPVLVIYDDSDRPSHIPERFSGSNSGNTATLTISRVEAGDEADYYCQVWDYSADTMVFGGGTKLTVL
4.17e-05

What value of koff has been reported for the following binder? BDG38.137 (antibody, V domains shown, IgG1) VH: QMQLVESGGGVVQPGQSLRLSCAASGFEFRTYGMHWVRQAPGKGLEWVAVIWDDGSNTHYADSVKGRFTITRDNSKNTLNLQMNSLRAEDTAVYYCVRAPQWYLTAEAFDLWGQGTMVTVSS VL: SYVLTQPPSVSVAPGETATITCGGNLIGARLVHWYQQKPGQAPVLVIYDDSDRPSHIPERFSGSNSGNTATLTISRVEAGDEADYYCQVWDYSADTMVFGGGTKLTVL
7.01e-05

What value of koff has been reported for the following binder? BDG38.129 (antibody, V domains shown, IgG1) VH: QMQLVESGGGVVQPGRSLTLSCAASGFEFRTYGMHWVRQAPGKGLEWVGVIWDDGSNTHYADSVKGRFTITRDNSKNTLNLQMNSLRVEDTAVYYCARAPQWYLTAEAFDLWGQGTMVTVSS VL: SYILTQPPSVSVAPGQTATITCGGNLIGAKLVHWYQQKPGQAPVLVIYDDSDRPSRIPERFSGSNIGNTATLTISDVEEGDEADYYCQVWDYSSDHMVFGGGTKLTVL
9.12e-05

What value of koff has been reported for the following binder? BDG38.131 (antibody, V domains shown, IgG1) VH: QMQLVESGGGVVQPGRSLTLSCAASGFEFRTYGMHWVRQAPGKGLEWVAVIWDDGSNTHYADSVKGRFTITRDNSKNTLNLQMNSLRAEDTAVYYCVRAPQWYLTAEAFDLWGQGTMVTVSS VL: SYILTQPPSVSVAPGETATITCGGNLIGAKLVHWYQQKPGQAPVLVIYDDSDRPSRIPERFSGSNIGNTATLTISDVEEGDEADYYCQVWDYYSNTMVFGGGTKLTVL
2.85e-07
